# Lookup of reported MIC keyed by entry
- Tested on: A. baumannii
- method.notes: MIC by broth microdilution (CLSI), panel of 60 A. baumannii clinical isolates (Example 1)
- applied.conditions: Acinetobacter baumannii, strain ARC3495; OXA-40; OXA-109
Give the value, in units of µg/mL, as a plain number.

CC1(C)[C@H](C(=O)O)N2C(=O)C[C@H]2S1(=O)=O
32

Input: Lab note: need MIC with A. baumannii for entry C[C@H]1COc2c(N3CCN(C)CC3)c(F)cc3c(=O)c(C(=O)O)cn1c23 , please look it up.
Output: 4

----------
- System: A. baumannii
- method.notes: MIC by broth microdilution (CLSI), panel of 60 A. baumannii clinical isolates (Example 1)
- applied.conditions: Acinetobacter baumannii, strain ARC3513; TEM-1; OXA-23; OXA-65
Entries and their MIC
Numbers only here, please. The scale is µg/mL.

Below, each entry is followed by its recorded MIC result.
C[C@H]1COc2c(N3CCN(C)CC3)c(F)cc3c(=O)c(C(=O)O)cn1c23
16
CC1(C)[C@H](C(=O)O)N2C(=O)C[C@H]2S1(=O)=O
16

Input: Checklist item: MIC tested on A. baumannii, entry CN(C)[C@@H]1C(O)=C(C(N)=O)C(=O)[C@@]2(O)C(O)=C3C(=O)c4c(O)cccc4[C@@](C)(O)[C@H]3C[C@@H]12 , value?
Output: 8

Input: MIC of C[C@@H](O)[C@H]1C(=O)N2C(C(=O)O)=C(S[C@@H]3CN[C@H](C(=O)N(C)C)C3)[C@H](C)[C@H]12 on A. baumannii?
Output: 32
